All values here come from patent US9670150B2.

- MEASUREMENT_TARGET: FPR2 (Homo sapiens)
- Construct: expressed in transfected cells; host or cells: CHO-Ga16 cells stably expressing FPR2
- Sequence (P25090 whole entry): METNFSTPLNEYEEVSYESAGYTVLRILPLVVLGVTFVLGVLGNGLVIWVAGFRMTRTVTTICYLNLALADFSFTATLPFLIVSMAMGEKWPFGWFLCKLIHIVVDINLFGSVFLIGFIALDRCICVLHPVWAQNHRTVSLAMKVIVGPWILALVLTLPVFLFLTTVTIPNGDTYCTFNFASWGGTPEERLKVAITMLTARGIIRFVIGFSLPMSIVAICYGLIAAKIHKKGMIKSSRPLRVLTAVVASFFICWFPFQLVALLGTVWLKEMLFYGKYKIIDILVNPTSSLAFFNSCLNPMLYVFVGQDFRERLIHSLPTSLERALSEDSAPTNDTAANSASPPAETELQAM
- EXPERIMENT_SUMMARY: compound-induced calcium activity on FLIPR Tetra in CHO-Ga16 cells stably expressing FPR2
- Type: cell-based
- PARTICULARS: CHO-Ga16 cells stably expressing FPR2; calcium activity, FLIPR Tetra; concentrations 0.61 to 10,000 nM
QUANTITY_KIND: EC50

As a guide, the following entries are already answered.
- RECORD_SMILES: "CC(C)C[C@H](NC(=O)Nc1ccc(Br)cc1)C(=O)NCP(=O)(OC(C)C)OC(C)C"
  MEASUREMENT_TARGET: "FPR2 (Homo sapiens)"
  EC50: "4 nM"
- RECORD_SMILES: "CCOP(=O)(CNC(=O)[C@H](CC(C)C)NC(=O)Nc1ccc(Br)cc1)OCC"
  MEASUREMENT_TARGET: "FPR2 (Homo sapiens)"
  EC50: "0.59 nM"
- RECORD_SMILES: "CCOP(=O)(CNC(=O)[C@@H](NC(=O)Nc1ccc(Br)cc1)[C@@H](C)CC)OCC"
  MEASUREMENT_TARGET: "FPR2 (Homo sapiens)"
  EC50: "2.4 nM"
- RECORD_SMILES: "CC(C)C[C@H](NC(=O)Nc1ccc(Br)cc1)C(=O)NCCc1nnn[nH]1"
  MEASUREMENT_TARGET: "FPR2 (Homo sapiens)"
  EC50: "47.9 nM"

Now look at this entry.
Inquiry: GET /values?readout=EC50&item= CCC[C@H](NC(=O)Nc1ccc(Br)cc1)C(=O)NCP(=O)(O)O
Reply text: 32 nM
